Please provide measured pEC50 for the entries that follow.
# experimental.system: human GcgR (Homo sapiens, UniProt P47871)
# Sequence (P47871 26-477): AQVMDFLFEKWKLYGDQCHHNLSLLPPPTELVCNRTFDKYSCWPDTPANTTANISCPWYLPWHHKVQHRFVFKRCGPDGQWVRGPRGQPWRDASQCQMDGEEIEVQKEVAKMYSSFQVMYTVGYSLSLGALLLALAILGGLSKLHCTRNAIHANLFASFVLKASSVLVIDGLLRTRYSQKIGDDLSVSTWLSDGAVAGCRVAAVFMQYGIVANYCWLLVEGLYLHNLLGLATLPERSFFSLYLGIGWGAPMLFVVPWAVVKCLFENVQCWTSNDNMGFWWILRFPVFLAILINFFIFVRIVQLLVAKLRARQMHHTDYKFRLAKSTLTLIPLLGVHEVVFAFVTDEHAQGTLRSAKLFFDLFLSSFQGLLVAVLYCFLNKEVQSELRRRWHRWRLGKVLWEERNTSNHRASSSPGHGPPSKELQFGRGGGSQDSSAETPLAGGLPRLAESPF
# assay.procedure: Functional cAMP activity in the presence of 1% HSA
# Format: cell-based
# details: read-out: cAMP Rel EC50, hGcgR
Starred links: 1 amine or outer side, 2 acyl side, 3 side chain; linkers in the order of their positions; H or OH if unused. Non-standard residues stand in square brackets, D forms with d. Groups on a side chain read outwards from the residue. No end group written: not given here. *: point of attachment. C20 diacid = O=C(O)CCCCCCCCCCCCCCCCCCC(=O)*; C18 diacid = O=C(O)CCCCCCCCCCCCCCCCC(=O)*; αMePhe(2-F) = C[C@](N)(Cc1ccccc1F)C(=O)O; γGlu = O=C(O)[C@H](CCC(=O)[*:2])N[*:1]; αMe4Pal = C[C@](N)(Cc1ccncc1)C(=O)O; αMeY = C[C@](N)(Cc1ccc(O)cc1)C(=O)O; 4Pal = N[C@@H](Cc1ccncc1)C(=O)O; αMeL = CC(C)C[C@](C)(N)C(=O)O; αMeS = C[C@](N)(CO)C(=O)O; Orn = NCCC[C@H](N)C(=O)O; AEEA = NCCOCCOCC(=O)O; Aib = CC(C)(N)C(=O)O
Conceptually, pEC50 converts a concentration in mol/L into minus its log10.

Let me check: H-Y[Aib]QGT[αMePhe(2-F)]TSD[4Pal]SILLD[Orn]K([γGlu-γGlu-C18 diacid])AQ[αMe4Pal][Orn]FI[dE]YLIEGGPSSGEPPPSGTEE-NH2 [Example 584] , system human GcgR (Homo sapiens, UniProt P47871), measured pEC50 is 6.30

human GcgR (Homo sapiens, UniProt P47871) assay, substance Y[Aib]QGT[αMePhe(2-F)]TSD[4Pal][αMeS]I[αMeL]LD[Orn]K([AEEA-γGlu-C18 diacid])AA[Aib]EFI[dE][αMeY]LIEGGPSSGAPPPSGE-NH2 [Example 701] , recorded pEC50 = 6.65

Record H-Y[Aib]QGTFTSD[4Pal]SR[αMeL]LDKK([AEEA-γGlu-C18 diacid])AQ[Aib]AFIE[αMeY]LLEGGPSSGAPPPSGS-NH2 [Example 909] ; system human GcgR (Homo sapiens, UniProt P47871); pEC50 = 5.76

Record H-Y[Aib]QGTFTSDFSK[αMeL]LDKK([AEEA-AEEA-γGlu-C20 diacid])AQ[Aib]AFIEYLLEGGPSSGAPPPGEG-NH2 [Example 17] ; system human GcgR (Homo sapiens, UniProt P47871); pEC50 = 5.69

Bench note, human GcgR (Homo sapiens, UniProt P47871): Y[Aib]QGTFTSD[4Pal]SR[αMeL]LDKK([AEEA-γGlu-C18 diacid])AQ[αMe4Pal]AFIE[αMeY]LIEGGPSSGAPPPSGS-NH2 [Example 843] , pEC50 reads 6.44

// assay human GcgR (Homo sapiens, UniProt P47871), entry H-Y[Aib]QGTFTSD[4Pal]SK[αMeL]LDKK([γGlu-γGlu-C18 diacid])AQ[Aib]AFIEYLIE[Aib]GPSSGAPPPSGSEE-NH2 [Example 905] , pEC50 value = 5.86

human GcgR (Homo sapiens, UniProt P47871) assay, substance Y[Aib]QGTFTSDFSK[αMeL]LDKK([AEEA-γGlu-C20 diacid])AQ[Aib]AFIQYLLAGGPSSGEPPPSEG-NH2 [Example 27] , recorded pEC50 = 5.93

Known value: human GcgR (Homo sapiens, UniProt P47871) pEC50 of the substance H-Y[Aib]QGTFTSDYSK[αMeL]LDKK([AEEA-γGlu-C18 diacid])AQ[Aib]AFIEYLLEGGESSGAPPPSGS-NH2 [Example 358] equals 6.06

Reported pEC50 (human GcgR (Homo sapiens, UniProt P47871)) for entry H-Y[Aib]QGTFTSDFS[Orn][αMeL]LDKK([AEEA-γGlu-C20 diacid])AQ[Aib]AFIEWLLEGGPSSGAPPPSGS-NH2 [Example 78] is 5.58

Bench note, human GcgR (Homo sapiens, UniProt P47871): H-Y[Aib]QGT[αMePhe(2-F)]TSD[4Pal][αMeS]I[αMeL]LD[Orn]K([AEEA-γGlu-C18 diacid])AQ[αMe4Pal]EFI[dE][αMeY]LIEGGPSSGAPPPSGTGE-NH2 [Example 714] , pEC50 reads 6.71

Noted pEC50 for H-Y[Aib]QGTFTSDFS[Orn][αMeL]LDKK([AEEA-γGlu-C18 diacid])AQ[Aib]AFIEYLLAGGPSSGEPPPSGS-NH2 [Example 94] , tested on human GcgR (Homo sapiens, UniProt P47871): 5.91

pEC50 value, target or system human GcgR (Homo sapiens, UniProt P47871), for H-Y[Aib]QGT[αMePhe(2-F)]TSDYSILLDKK([AEEA-γGlu-C18 diacid])AQ[Aib]AFIE[4Pal]LEEGGPSSGAPPPSEG-NH2 [Example 411] : 5.93

src = patent US20240270821A1
